Tested on: Malme-3M
testName: NCI tumour cell line growth inhibition, 48 h
Calls of active or inactive are those of the source. Rule as the data show it: active = GI50 up to about 1.1 µM and inactive = higher.
Please go through the items and note down their GI50.

Would you kindly share the measured GI50 for CCc1cc(O)c(Cl)c(C)c1Cl ? 19.4 µM (inactive)

Would you kindly share the measured GI50 for N/C(=N\c1ccc(Cl)c(Cl)c1)c1ccccc1N ? 19 µM (inactive)

Would you kindly share the measured GI50 for CNC(=S)Nc1sc2c(c1C#N)CCCC2 ? > 75 µM (inactive)

Would you kindly share the measured GI50 for COc1ccc(/C=C/C(=O)NCC(NC(=O)/C=C/c2ccc(OC)c(OC)c2)C(=O)O)cc1OC (stereo unspecified) ? > 100 µM (inactive)

Would you kindly share the measured GI50 for Cc1ccc(/C=C2\CCCCCC2=O)cc1 ? > 100 µM (inactive)

Would you kindly share the measured GI50 for O=C1C2Cc3ccccc3CN2C(=O)N1CCN1CCOCC1 (stereo unspecified) ? > 100 µM (inactive)

====

Please go through the items and note down their GI50.
Test system: SK-MEL-2
testName: NCI tumour cell line growth inhibition, 48 h
Activity calls are given as the source filed them. Rule as the data show it: active = GI50 up to about 1.1 µM and inactive = higher.

Would you kindly share the measured GI50 for N#C/C(=C/c1cccnc1)C(=O)c1ccccc1 ? > 100 µM (inactive)

Would you kindly share the measured GI50 for Oc1ccc(-c2c3ccccc3c(-c3ccc(OCCBr)cc3)c3ccccc23)cc1 ? 22.2 µM (inactive)

Would you kindly share the measured GI50 for C[n+]1c2ccccc2c2/c(=C\C#N)c3ccccc3n21 ? 3.49 µM (inactive)

Would you kindly share the measured GI50 for C[n+]1c2ccccc2c(/C=N\NS(=O)(=O)c2ccc(O)c(C(=O)O)c2)c2ccccc21 ? 63.5 µM (inactive)

Would you kindly share the measured GI50 for Oc1cc2c3c(c1)c1cc4c(cc1c[n+]3CC2)OCO4 ? 9.68 µM (inactive)

Would you kindly share the measured GI50 for CCc1cccc(C)c1NC(=O)CC1C(=O)Nc2ccccc2[S+]1[O-] (configuration not stated) ? 43.5 µM (inactive)

Would you kindly share the measured GI50 for COc1ccc(/C=C2\CCc3cc(OC)c(OC)cc3C2=O)cc1 ? > 10 µM (inactive)

Would you kindly share the measured GI50 for CCOC(=O)c1c2ccccc2n2c(N)c(C(N)=O)nnc12 ? 20.5 µM (inactive)

Would you kindly share the measured GI50 for Fc1ccc(/C(=N/Cc2ccccc2)N2CCOCC2)cc1 ? > 100 µM (inactive)

Would you kindly share the measured GI50 for CC(C)=CCC(O)[C@](C)(O)[C@H]1[C@H](O)C[C@@]2(C)[C@@H]3CCc4cc(O)c(OC5OC(CO)C(O)C(O)C5O)cc4C3(C)C(=O)C[C@]12C (some centres not stated) ? > 100 µM (inactive)

Would you kindly share the measured GI50 for O=C(O)C1CCN(Cc2oc(CO)cc(=O)c2O)C1 (configuration not stated) ? > 100 µM (inactive)

Would you kindly share the measured GI50 for CC1=C(C(=O)CC(=O)C(=O)NC2C3CC4CC(C3)CC2C4)Sc2ccccc2N1 (configuration not stated) ? > 100 µM (inactive)

Would you kindly share the measured GI50 for O=C1/C(=C\c2cccc(Oc3ccccc3)c2)SC(c2ccccc2)N1c1cccc(Cl)c1 (configuration not stated) ? > 100 µM (inactive)

Would you kindly share the measured GI50 for CC(O)CCNC(=O)Nc1c(C(F)(F)F)cc(-c2ccccc2)[nH]c1=O (configuration not stated) ? > 100 µM (inactive)

Would you kindly share the measured GI50 for O=C1C(c2ccc([N+](=O)[O-])cc2)=[N+]([O-])c2ccccc21 ? > 100 µM (inactive)

Would you kindly share the measured GI50 for COc1ccc(C2C3=C(COC3=O)OC(C)(C)Oc3cc4c(cc32)OCO4)cc1 (configuration not stated) ? 37.8 µM (inactive)

Would you kindly share the measured GI50 for COc1ccccc1C1(c2c(OC(C)C)c(=O)c2=O)SCCCS1 ? > 100 µM (inactive)

Would you kindly share the measured GI50 for CC1C2Cc3ccc(O)cc3C1(C)CCN2C (configuration not stated) ? > 100 µM (inactive)

Would you kindly share the measured GI50 for CC(=O)NC1C(OCc2ccccc2)OC(COC(=O)CCCCCCCCCCNC(=O)c2cccc3c(=O)c4ccccc4[nH]c23)C(O)C1OC(C)C(=O)NC(C)C(=O)NC(CCC(N)=O)C(N)=O (configuration not stated) ? 50.8 µM (inactive)

Would you kindly share the measured GI50 for CC(=O)C(C(C)=O)[C@@H]1OC(C)(C)O[C@@H]1[C@H]1COC(C)(C)O1 ? 28.5 µM (inactive)

Would you kindly share the measured GI50 for Cc1c2cccc-2ccc2c1[nH]c1ccccc12 ? 1.8 µM (inactive)

Would you kindly share the measured GI50 for COc1ccc2oc3c(C)cc4c(OC)nnc(OC)c4c3c2c1 ? 82.4 µM (inactive)

Would you kindly share the measured GI50 for ClCCCCOC1CCCCO1 (configuration not stated) ? > 100 µM (inactive)

Would you kindly share the measured GI50 for O=C(CON1C(=O)c2ccccc2C1=O)c1ccccc1 ? > 100 µM (inactive)

Would you kindly share the measured GI50 for O=[N+]([O-])c1ccc2nc(/C(=N/Nc3ccccc3)C(O)c3ccc(Cl)cc3Cl)c(O)nc2c1 (configuration not stated) ? > 100 µM (inactive)

Would you kindly share the measured GI50 for O=C(CN1c2ccccc2Sc2ccccc21)N1CCNCC1 ? > 100 µM (inactive)

Would you kindly share the measured GI50 for COC(=O)/N=[N+](\[O-])C(c1ccc(OC)cc1)C1CCCCC1 (configuration not stated) ? 13.3 µM (inactive)

Would you kindly share the measured GI50 for CCCCCCCCCC[C@H](O)[C@H]1CC[C@H]([C@H]2CC[C@H]([C@H](O)CC[C@H](O)CCCCCCC[C@@H](O)CC3=C[C@H](C)OC3=O)O2)O1 ? 78 µM (inactive)

Would you kindly share the measured GI50 for CCOP(=O)(OCC)C(c1ccccc1)N(C(=O)NC(F)(F)F)c1ccc(C)cc1 (configuration not stated) ? > 100 µM (inactive)

Would you kindly share the measured GI50 for CN(C)CC(O)CNC(=O)Nc1ccccc1 (configuration not stated) ? > 100 µM (inactive)

Would you kindly share the measured GI50 for O=C1C(c2c(O)[nH]c3ccc(Br)cc23)=Nc2ccc(Br)cc21 ? > 100 µM (inactive)

Would you kindly share the measured GI50 for CCCCOC(=O)NC(=O)c1cn(C2CCCCC2)c(=O)[nH]c1=O ? 38 µM (inactive)

Would you kindly share the measured GI50 for CC(CNC(=O)c1ccccc1)(CNC(=O)c1ccccc1)[N+](=O)[O-] ? > 100 µM (inactive)

Would you kindly share the measured GI50 for COc1cc(=O)oc(/C=C/C=C/C=C/C(C)=C\C2(C)OC(C)C(C)(O)C2O)c1C (configuration not stated) ? > 100 µM (inactive)

Would you kindly share the measured GI50 for SC1=Nc2ccccc2-c2nc(-c3ccccc3)cc(-c3ccc(Br)cc3)c2C1 ? 6.47 µM (inactive)

Would you kindly share the measured GI50 for O=C(NCCC1CN(S(=O)(=O)C(F)(F)F)c2ccccc21)OCc1ccccc1 (configuration not stated) ? > 100 µM (inactive)

Would you kindly share the measured GI50 for CC(=O)Oc1ccc(-c2cc3ccccc3oc2=O)cc1OC(C)=O ? 38.5 µM (inactive)

Would you kindly share the measured GI50 for N#CC12CCC1C1CCCCC12N1CCSCC1 (configuration not stated) ? 35.4 µM (inactive)

Would you kindly share the measured GI50 for CC1(C)COC2=C(C1)C(=O)c1ccccc1C2=O ? 1.91 µM (inactive)

Would you kindly share the measured GI50 for O=c1c(-c2ccc(Cl)cc2)nnc2n(Cc3ccccc3)c3ccccc3n12 ? 44.2 µM (inactive)

Would you kindly share the measured GI50 for CN(C)C=O.O=C(Nc1nnn[nH]1)c1nc(O)cc(-c2ccccc2)n1 ? > 100 µM (inactive)

Would you kindly share the measured GI50 for CC12CCC(C1)C(C)(C)C2OC(=O)c1ccccc1C(=O)O (configuration not stated) ? > 100 µM (inactive)
